Test system: MV4-11 cell lines
Experiment: AC220 in combination with daunorubicin, cell viability study (CellTiter-Blue)
Type: cell-based
Details: Homo sapiens; MV4-11, AC220 alone
pEC50: −log10 of the molar value.

# Structure notation, pEC50
records = [
    ("CC(C)(C)c1cc(NC(=O)Nc2ccc(-c3cn4c(n3)sc3cc(OCCN5CCOCC5)ccc34)cc2)no1", 9.46),
]
